Attribution: PubChem BioAssay (NCATS)

Test: qHTS Screen of the MIPE 4.0 Collection Against Ewings Sarcoma (TC71) (AID 1259253); further: nearly all actives have a fitted effect of over 40% in size; further: potency means the concentration at half of the fitted maximal effect
Settings: TC71 Ewing sarcoma viability, CellTiter-Glo, 48 h; series mostly up to 45.8 µM
Inconclusive results are not listed. Calls of active or inactive are those of the source. The call rests on the fitted dose curve; in most records, active means well fitted inhibition curve with a large enough effect; inconclusive means small, poorly fitted or top-dose-only effect; inactive means no such curve, though single readings can be large or run the other way.
readout kind: Potency

| compound | Potency |
| --- | --- |
| CC=C1NC(=O)[C@H]2CSSCCC=C[C@H](CC(=O)N[C@H](C(C)C)C(=O)N2)OC(=O)[C@H](C(C)C)NC1=O | 20.9 nM (active) |
| CC(C)=CCCC(C)=CCCC(C)=CCSc1ccccc1C(=O)O | 2350 nM (active) |
| COc1ccc(-c2cc3c(C)nc(N)nc3n(C3CCC(OCCO)CC3)c2=O)cn1 (centres undefined) | 74.3 nM (active) |
| Cc1nc2ccc(CN(C)c3ccc(C(=O)N[C@@H](CCC(=O)O)C(=O)O)s3)cc2c(=O)[nH]1 | 20.9 nM (active) |

What value of Potency has been reported for the following compound? CCS(=O)(=O)c1cccc(-c2cc(C(=O)NC3CCN(C)CC3)c(C)c3[nH]c4ncc(C)cc4c23)c1
3320 nM (active)

What value of Potency has been reported for the following compound? O=c1c2ccccc2nc2n1CCc1c-2[nH]c2ccccc12
inactive

What value of Potency has been reported for the following compound? Cc1cnc(-c2cnc(NCCNc3ccc(C#N)cn3)nc2-c2ccc(Cl)cc2Cl)[nH]1
11800 nM (active)

What value of Potency has been reported for the following compound? COc1cc2ncnc(Nc3ccc(F)c(Cl)c3)c2cc1NC(=O)C=CCN1CCCCC1
2090 nM (active)

What value of Potency has been reported for the following compound? CN1c2cc(O)c(N=NC(N)=O)cc2CC1S(=O)(=O)O (centres undefined)
inactive
